assay-protocol: qHTS screen for small molecules that inhibit ELG1-dependent DNA repair in human embryonic kidney (HEK293T) cells expressing luciferase-tagged ELG1; further: nearly all actives have a fitted effect of over 55% in size
test-conditions: HEK293T ELG1-luciferase reporter, luminescence, 16 h, DNA damage induced by 5-fluorouridine; series mostly up to 46.1 µM
Out of some 330,000 compounds screened, about 7,700 (2.3%) were called active. About 26% were inconclusive and are not listed. The call rests on the fitted dose curve; in most records, active means well fitted inhibition curve with a large enough effect; inconclusive means small, poorly fitted or top-dose-only effect, or effect the other way; inactive means flat fitted curve, though single readings scatter. Shown is part of a subset that was picked to be rich in actives.
Possible outcomes: class 1 (active), class 0 (inactive)

[[record]]
molecule = "Cc1ccc(C)c(-c2nnc(NC(=O)CS(=O)(=O)c3ccccc3)o2)c1"
class = "class 0"

[[record]]
molecule = "Cc1cccc2cc(CN(C(=O)c3cccs3)c3ccccc3)c(=O)[nH]c12"
class = "class 0"

[[record]]
molecule = "COc1ccc(NC(=O)c2cc3nc(-c4ccccc4)cc(C)n3n2)cc1OC"
class = "class 1"

[[record]]
molecule = "Cc1ccc(NC(=O)C/C(N)=N/O)cc1Cl"
class = "class 0"

[[record]]
molecule = "CC(=O)Nc1cccc(NC(=O)c2ccc3c(c2)CCN3S(C)(=O)=O)c1"
class = "class 0"

[[record]]
molecule = "CC(C)Cn1c(N)c(C(=O)NCc2cccs2)c2nc3ccccc3nc21"
class = "class 1"

[[record]]
molecule = "COc1ccc(NC(=O)CNC(=O)Cc2ccccc2)cc1OC"
class = "class 0"

[[record]]
molecule = "CCOc1ncccc1C(=O)OCC(=O)c1c[nH]c2ccccc12"
class = "class 0"

[[record]]
molecule = "COc1cc(-c2noc(C3CCCN(S(=O)(=O)c4cccc(Cl)c4)C3)n2)cc(OC)c1OC (configuration not stated)"
class = "class 1"

[[record]]
molecule = "C=CC[C@@H](CC(=O)NCCO)C(=O)N[C@H](C)COC(=O)[C@@H](CC=C)CC(=O)OC(C)(C)C"
class = "class 0"

[[record]]
molecule = "C=CCn1c(SCC(=O)NC)nnc1C12CC3CC(CC(C3)C1)C2"
class = "class 0"

[[record]]
molecule = "COc1ccc(NC(=O)CN(Cc2ccccc2)S(C)(=O)=O)cc1OC"
class = "class 0"

[[record]]
molecule = "Cc1cc(C)c2[nH]c(=O)c(CN(Cc3ccccc3)C(=S)NCCCN(C)C)cc2c1"
class = "class 0"

[[record]]
molecule = "CN1/C(=C\\C(=O)c2oc3ccccc3c2N)C(C)(C)c2ccccc21"
class = "class 1"

[[record]]
molecule = "CCCNC(=O)c1c(N)n(-c2ccc(S(N)(=O)=O)cc2)c2nc3ccccc3nc12"
class = "class 0"

[[record]]
molecule = "CC1CC(C)CN(CCOc2cccc3ccccc23)C1 (configuration not stated)"
class = "class 0"

[[record]]
molecule = "CC(C)C[C@H](NC(=O)N1CC(=O)Nc2ccccc21)C(=O)N[C@H](Cc1ccccc1)C(=O)O"
class = "class 0"

[[record]]
molecule = "COc1ccc(NC(=O)CC2SC(N3CCCCC3)=NC2=O)cc1OC (configuration not stated)"
class = "class 0"

[[record]]
molecule = "CCCN1CCn2c3c(c4cc(Br)ccc42)CCCC31 (configuration not stated)"
class = "class 0"

[[record]]
molecule = "COc1ccc(NC(=O)CN2C(=O)C(c3ccccc3)=NC23CCCCCC3)cc1OC"
class = "class 1"

[[record]]
molecule = "CC(C)N(C(=O)CN1CCN(S(=O)(=O)c2ccc(Br)s2)CC1)C(C)C"
class = "class 0"

[[record]]
molecule = "FC(F)(F)c1ccc2c3n(nc2c1)CCN=C3c1ccc(Cl)cc1"
class = "class 0"


Taken from PubChem BioAssay AID504467.
